Target: RNF31 UBA domain (Homo sapiens)
Construct: RNF31 UBA domain protein (residues 480-639) with N-terminal Thioredoxin-TEV-6×his-yBBr-3C tags; Thioredoxin (N, cleaved yes); made in house; host or cells: E. coli BL21 (DE3) pLysS
Sequence (Q96EP0 480-639): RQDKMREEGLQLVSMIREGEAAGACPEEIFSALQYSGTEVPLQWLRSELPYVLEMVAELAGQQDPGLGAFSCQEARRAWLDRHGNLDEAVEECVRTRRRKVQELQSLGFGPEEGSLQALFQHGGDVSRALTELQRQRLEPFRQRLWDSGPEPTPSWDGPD
Test: Phage Library Screening with NGS, RNF31 UBA domain
Format: binding
Settings: RNF31 UBA domain cluster C46; target concentration 1000, second column
REPORTED_PROPERTY: Phage library screen NGS readout, Target Concentration 1000
Just the number.

# example entries with known answers
| ORDERED_RESIDUES | MEASURED_VALUE |
| --- | --- |
| DPAAQACLSAAVFCAWY | 97 |
| DPAQRQCLSAAVWCATF | 203 |
| DPALTNCFSAAVYCAMF | 291 |
| DPAQMFCYSAAVYCAAF | 4 |
| DPAALACLSAAVYCEMY | 246 |
| DPAQRQCLSAAVFCATL | 319 |
| DPAASQCFSAAVYCAWI | 13 |
| DPAEQRCLSAAVYCAWH | 26 |
| DPALRTCLSAAVFCAVA | 25 |
| DPAQMSCFSAAVYCRLF | 17 |

Input line: If you can, please state the reported Phage library screen NGS readout, Target Concentration 1000 value of DPAVQSCLSAAVYCAFR .
Output line: 118

Input line: Can you look up the measured Phage library screen NGS readout, Target Concentration 1000 of DPASASCLSAAIYCSMF for me?
Output line: 297

Input line: # lookup: Phage library screen NGS readout, Target Concentration 1000 of DPAHVRCTSAALWCNIF
Output line: 7

Input line: May I ask what Phage library screen NGS readout, Target Concentration 1000 has been recorded for DPAQLNCLSAAMYCALY ?
Output line: 111

Input line: # Phage library screen NGS readout, Target Concentration 1000 lookup, item DPALQSCLSAAVYCTVS
Output line: 10

###

biological target: WWP1 (Homo sapiens, UniProt Q9H0M0); construct: GST-TEV (N, cleaved yes); made in house; host or cells: Escherichia coli BL21 (DE3); assay: Naive Library Presenter Screening (phage, NGS), WWP1 (construct not given); assay type: binding; conditions: WWP1 target concentration 300 nM
Numbered stars: 1 amine (or outer) side, 2 acyl side, 3 side chain; on linkers, the order of the positions; unused ones are H or OH. Bridge positions count the residues as written; N and C are the ends. Ends that are not written are not given here. Phenylene(1,4-NHCOCH2)2 = O=C(C[*:1])Nc1ccc(NC(=O)C[*:2])cc1
Each record here notes measured interaction data at Target Concentration 300.
I'd appreciate a reply containing only the number, no unit.

The following sequences have reported results that may help.
| ORDERED_RESIDUES | MEASURED_VALUE |
| --- | --- |
| DPAQQTCSQAAWVCSIL (linker 7-14 via Phenylene(1,4-NHCOCH2)2; not fully specified (C-terminus)) | 363 |
| DPAHQTCAFAAVLCHQN (linker 7-14 via Phenylene(1,4-NHCOCH2)2) | 18 |
| DPALQTCMDAAQVCRLL (linker 7-14 via Phenylene(1,4-NHCOCH2)2) | 163 |

Input line: // lookup interaction data at Target Concentration 300 for DPATMNCTLAANICHSH (linker 7-14 via Phenylene(1,4-NHCOCH2)2 (inferred); not fully specified (C-terminus))
Output line: 363

###

Listed next: entries and their corresponding interaction data at Target Concentration 300.
target: WWP2^HECT (Homo sapiens, UniProt O00308); construct: GST-TEV (N, cleaved yes); made in house; host or cells: Escherichia coli BL21 (DE3); assay: Naive Library Presenter Screening (phage, NGS), WWP2^HECT; type: binding; details: WWP2 target concentration 300 nM
Sequence (O00308 492-865): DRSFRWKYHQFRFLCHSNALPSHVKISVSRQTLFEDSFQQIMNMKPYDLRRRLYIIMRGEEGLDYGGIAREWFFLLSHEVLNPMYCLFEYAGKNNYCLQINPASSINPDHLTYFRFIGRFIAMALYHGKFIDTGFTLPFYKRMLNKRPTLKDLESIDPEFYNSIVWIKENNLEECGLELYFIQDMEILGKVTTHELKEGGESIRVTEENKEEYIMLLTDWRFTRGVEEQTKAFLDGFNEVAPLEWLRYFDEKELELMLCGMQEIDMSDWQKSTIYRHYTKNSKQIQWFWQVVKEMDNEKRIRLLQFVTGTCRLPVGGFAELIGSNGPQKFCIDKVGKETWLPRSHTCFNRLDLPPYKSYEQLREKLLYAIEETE
Numbered stars: 1 amine (or outer) side, 2 acyl side, 3 side chain; on linkers, the order of the positions; unused ones are H or OH. Bridge positions count the residues as written; N and C are the ends. Ends that are not written are not given here. Phenylene(1,4-NHCOCH2)2 = O=C(C[*:1])Nc1ccc(NC(=O)C[*:2])cc1
Answer with a number only.

Consider the worked cases shown below.
| ORDERED_RESIDUES | SYSTEM_NAME | MEASURED_VALUE |
| --- | --- | --- |
| DPALWECMTAADWCMFM (linker 7-14 via Phenylene(1,4-NHCOCH2)2; not fully specified (C-terminus)) | WWP2^HECT (Homo sapiens, UniProt O00308) | 18 |
| DPAVWECRWAAFQCWLD (linker 7-14 via Phenylene(1,4-NHCOCH2)2 (inferred); not fully specified (C-terminus)) | WWP2^HECT (Homo sapiens, UniProt O00308) | 86 |
| DPAAWDCRYAALACYIH (linker 7-14 via Phenylene(1,4-NHCOCH2)2 (inferred)) | WWP2^HECT (Homo sapiens, UniProt O00308) | 11 |
| DPALIHCRAAADTCAFW (linker 7-14 via Phenylene(1,4-NHCOCH2)2; not fully specified (C-terminus)) | WWP2^HECT (Homo sapiens, UniProt O00308) | 608 |

Input line: Which interaction data at Target Concentration 300 is listed for DPAANYCEAAADTCQFF (linker 7-14 via Phenylene(1,4-NHCOCH2)2 (inferred)) ?
Output line: 297

Input line: Data request, read-out interaction data at Target Concentration 300, for DPATYYCEAAAETCRFF (linker 7-14 via Phenylene(1,4-NHCOCH2)2 (inferred); not fully specified (C-terminus))
Output line: 94

Input line: Consider the sequence DPAIHSCYAAAETCQFF (linker 7-14 via Phenylene(1,4-NHCOCH2)2 (inferred)) and give its measured interaction data at Target Concentration 300.
Output line: 139

Input line: What does the data say about its interaction data at Target Concentration 300? Entry: DPAIWDCLYAATNCYIN (linker 7-14 via Phenylene(1,4-NHCOCH2)2; not fully specified (C-terminus))
Output line: 8

Input line: For the sequence DPAVWDCRYAAWDCYTN (linker 7-14 via Phenylene(1,4-NHCOCH2)2 (inferred); not fully specified (C-terminus)) , what interaction data at Target Concentration 300 is on record?
Output line: 28

Input line: Look up interaction data at Target Concentration 300 for this sequence: DPARVNCHAAADTCFFF (linker 7-14 via Phenylene(1,4-NHCOCH2)2)
Output line: 103

Input line: # get_value(readout='interaction data at Target Concentration 300', item= DPATWACINAAHNCWRN (DPATWACINAAHNCWRN-NH2; linker 7-14 via Phenylene(1,4-NHCOCH2)2 (inferred)) )
Output line: 6

Input line: # input sequence: DPALWECRNAAWQCWMH (linker 7-14 via Phenylene(1,4-NHCOCH2)2; not fully specified (C-terminus)) ; wanted: its interaction data at Target Concentration 300
Output line: 24

Input line: Requested field: interaction data at Target Concentration 300. Item: DPALLHCMAAAQTCSFF (linker 7-14 via Phenylene(1,4-NHCOCH2)2; not fully specified (C-terminus))
Output line: 37

###

system: Expi293 cells; assay: Measurement of the Cell Association of Helicons (mass spectrometry quantification in cells after treatment and wash); type: cell-based; settings: percentage of Helicons in cells after treatment and wash, 22 hours, n = 2, mean ± SD
Listing of entries alongside the reported Helicon in cells ± SD (%).
Lab book: enter the figure in %, no units written.

| MOLECULE | REPORTED_PROPERTY | MEASURED_VALUE |
| --- | --- | --- |
| CCCC[C@H](NC(=O)[C@H](Cc1ccc(O)cc1)NC(=O)[C@H](CCC(N)=O)NC(=O)[C@]1(C)CCCC=CCCCCCC[C@@](C)(NC(=O)[C@H](CCC(=O)O)NC(=O)[C@H](CC(C)C)NC(=O)[C@@H](NC(C)=O)[C@@H](C)CC)C(=O)N[C@@H](Cc2ccc(O)cc2)C(=O)N[C@@H](CCC(=O)O)C(=O)N[C@@H](C)C(=O)N[C@@H](C)C(=O)N[C@@H](Cc2ccccc2)C(=O)N[C@@H](CCC(=O)O)C(=O)N1)C(N)=O (single isomer, unassigned) [FP08017] | Helicon in cells ± SD (%) | 0.6 |
| CCCC[C@H](NC(=O)[C@@H](NC(C)=O)C(C)C)C(=O)N[C@@H](CCC(N)=O)C(=O)N[C@]1(C)CCCCCCC=CCCC[C@@](C)(C(=O)N[C@@H](Cc2c[nH]cn2)C(=O)N[C@@H](Cc2ccc(O)cc2)C(=O)N[C@H](C(N)=O)C(C)C)NC(=O)[C@H]([C@@H](C)CC)NC(=O)[C@H](Cc2ccccc2)NC(=O)[C@H](C)NC(=O)[C@H](C)NC(=O)[C@H](CCC(=O)O)NC(=O)[C@H](Cc2ccc(O)cc2)NC1=O (single isomer, unassigned) [FP07863] | Helicon in cells ± SD (%) | 23.5 |
| CC[C@H](C)[C@H](NC(C)=O)C(=O)N[C@@H](CC(C)C)C(=O)N[C@@H](CCC(N)=O)C(=O)N[C@]1(C)CCCCCCC=CCCC[C@@](C)(C(=O)N[C@@H](Cc2c[nH]cn2)C(=O)N[C@@H](Cc2ccc(O)cc2)C(=O)N[C@@H](CCC(N)=O)C(N)=O)NC(=O)[C@H](CO)NC(=O)[C@H](Cc2ccccc2)NC(=O)[C@H](C)NC(=O)[C@H](C)NC(=O)[C@H](CCC(=O)O)NC(=O)[C@H](Cc2ccc(O)cc2)NC1=O (single isomer, unassigned) [FP07860] | Helicon in cells ± SD (%) | 0.3 |
| CCCC[C@H](NC(=O)[C@@H](NC(C)=O)C(C)C)C(=O)N[C@@H](CCC(=O)O)C(=O)N[C@]1(C)CCCCCCC=CCCC[C@@](C)(C(=O)N[C@@H](Cc2c[nH]cn2)C(=O)N[C@@H](Cc2ccc(O)cc2)C(=O)N[C@H](C(N)=O)C(C)C)NC(=O)[C@H]([C@@H](C)CC)NC(=O)[C@H](Cc2ccccc2)NC(=O)[C@H](C)NC(=O)[C@H](C)NC(=O)[C@H](CCC(=O)O)NC(=O)[C@H](Cc2ccc(O)cc2)NC1=O (single isomer, unassigned) [FP07856] | Helicon in cells ± SD (%) | 15.5 |

# evaluate next
Input line: Name the recorded Helicon in cells ± SD (%) for CCCC[C@H](NC(=O)[C@@H](NC(C)=O)C(C)C)C(=O)N[C@@H](CCC(N)=O)C(=O)N[C@]1(C)CCCCCCC=CCCC[C@@](C)(C(=O)N[C@@H](Cc2c[nH]cn2)C(=O)N[C@@H](Cc2ccc(O)cc2)C(=O)N[C@H](C(N)=O)C(C)C)NC(=O)[C@H]([C@@H](C)CC)NC(=O)[C@H](Cc2ccccc2)NC(=O)[C@H](C)NC(=O)[C@H](C)NC(=O)[C@H](CCC(N)=O)NC(=O)[C@H](Cc2ccc(O)cc2)NC1=O (single isomer, unassigned) [FP07871] .
Output line: 7.0
